The following compounds are shown together with reported TGI values.
# Test system: MOLT-4 leukemia
# measurement-protocol: NCI tumour cell line growth inhibition, 48 h
experimental-readout: TGI

compound: CN(C)CC1CCCC/C1=N/OC(=O)c1ccc(Cl)cc1 (centres undefined)
measured: > 100 µM
//
compound: O=C(Oc1ccccn1)c1cc2cc(CCl)ccc2oc1=O
measured: > 100 µM
//
compound: CC(O)C1(CNc2cc(Cl)nc(N)n2)CCC1 (centres undefined)
measured: > 100 µM
//
compound: CC(C)Oc1ccc2cc(-c3nn(CC4CCNCC4)c4ncnc(N)c34)ccc2c1
measured: 5.95 µM
//
compound: COC(=O)C(Cc1nc2ccc(Cl)cc2[nH]c1=O)/C(=N\N)C(=O)Nc1cc(C)c(Cl)cc1S(=O)(=O)O (centres undefined)
measured: > 100 µM
//
compound: O=C1/C(=C/c2cccc(Cl)c2Cl)N=C(c2ccccc2)N1C1CC1
measured: > 50 µM
//
compound: COc1cc2c(cc1OCCCNC(=O)c1cccc3c(=O)c4ccccc4[nH]c13)N=C[C@@H]1CCCN1C2=O
measured: > 100 µM
//
compound: Oc1[nH]c2ccccc2c1N=NC(=S)Nc1cccc(Cl)c1
measured: 10.8 µM
//
compound: COc1ccc2[nH]cc(C3(c4c[nH]c5ccc(OC)cc45)C(=O)Nc4ccc(F)cc43)c2c1
measured: 6.08 µM
//
compound: NNC(=O)c1n[nH]nc1C(=O)NN
measured: > 100 µM
//
compound: O=C1/C(=C/c2ccc3c(c2)OCO3)SC2C=Nc3ccccc3N12 (centres undefined)
measured: > 100 µM
//
compound: C/C(Cc1ccccc1)=N\NC(N)=S
measured: > 100 µM
//
compound: CCCN1C(=O)N(CCC)C2C1NC(=S)N2/N=C/C=C/c1ccccc1OC (centres undefined)
measured: > 66.2 µM
//
compound: CC(=O)Oc1ccc2c(C)cc(=O)oc2c1OC(C)=O
measured: > 100 µM
